SYSTEM: T1, native human ESRRG protein (Estrogen-receptor related receptor gamma) (human, UniProt P62508 229-458, limits assumed)
T1 construct: the screened protein is called 'native human ESRRG protein'; also called ESSRG; ERRγ
T1 sequence (looked up): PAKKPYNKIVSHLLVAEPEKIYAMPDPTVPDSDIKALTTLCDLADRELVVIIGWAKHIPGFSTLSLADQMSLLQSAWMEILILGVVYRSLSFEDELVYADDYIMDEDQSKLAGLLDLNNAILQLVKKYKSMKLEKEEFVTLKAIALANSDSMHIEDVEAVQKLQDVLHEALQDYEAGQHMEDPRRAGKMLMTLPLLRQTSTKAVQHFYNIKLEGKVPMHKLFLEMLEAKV
RUN DESCRIPTION: peptide microarray, Iteration 2; bound ESRRG detected with fluorescent anti-ESRRG mAb
Where no end group is shown, it is not given here.
READOUT LABEL: log2 (Sample B/Sample A)
Just the number, please, no unit after it.

Use the examples below as a reference point.
Prompt line: Which log2 (Sample B/Sample A) value is on record for `Ac-LFKLKQDG` ?
Response line: 3.32

Prompt line: Param item = `Ac-NNNFSLHM` ; retrieve measured log2 (Sample B/Sample A).
Response line: 4.45

Then this binder:
Prompt line: Return reported log2 (Sample B/Sample A); argument: `Ac-HLKLKQEN`
Response line: 3.25

Hey, just so you know, these numbers are from patent US20130053541A1.
